- ASSAYED_SYSTEM: T1, hu-CD200R1-iso4-Alt ECD (human)
- T1 construct: also called isoform 4 alt
- T1 chain: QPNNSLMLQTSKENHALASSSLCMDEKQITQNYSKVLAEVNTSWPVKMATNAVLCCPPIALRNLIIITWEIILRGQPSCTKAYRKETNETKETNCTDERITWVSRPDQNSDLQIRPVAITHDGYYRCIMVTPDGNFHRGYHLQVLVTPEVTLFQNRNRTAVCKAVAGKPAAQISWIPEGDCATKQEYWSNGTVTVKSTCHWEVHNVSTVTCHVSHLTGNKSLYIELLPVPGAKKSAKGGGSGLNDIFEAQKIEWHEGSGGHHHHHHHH
- ASSAY_INFO: SPR Biacore 8K 37C; antibody on Protein A chip, CD200R1 analyte;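 note: sensorgrams corrected by subtracting reference and buffer signals, then analysed with Biacore 8K Evaluation Software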
REPORTED_METRIC: kon (M⁻¹ s⁻¹)
Numbers only, in M⁻¹ s⁻¹.

# count of solved cases: 3
[[record]]
binder = "h10F6.V4 (antibody, IgG1, V domains shown, IgG1 variant of h10F6) VH: EVQLQESGPGLVKPSETLSLTCTVSGFSLTNYWVSWVRQPPGKGLEWLGTMWAGGGTNYNSVFKSRLTISKDNSKNQVSLKLSSVTAADTAVYYCARERPLTGPMDYWGQGTLVTVSS VL: DIVLTQSPDSLAVSLGERATINCRASESVDYSGNSFMHWFQQKPGQPPKLLIYRASNLESGIPDRFSGSGSRTDFTLTISSLQAEDVAVYYCHQSNWDPPTFGGGTKVEIKR"
reported_metric = "kon"
observed_measurement = 388000

[[record]]
binder = "h10F6.V2 (antibody, IgG1, V domains shown, IgG1 variant of h10F6) VH: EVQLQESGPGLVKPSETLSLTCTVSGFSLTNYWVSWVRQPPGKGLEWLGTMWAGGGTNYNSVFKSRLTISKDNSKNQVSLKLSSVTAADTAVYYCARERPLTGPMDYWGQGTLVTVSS VL: DIVLTQSPDSLAVSLGERATINCRASESVDYSGNSFMHWFQQKPGQPPKLLIYRASNLESGIPDRFSGSGSRTDFTLTISSLQAEDVAVYYCHQSNEDPPTFGGGTKVEIKR"
reported_metric = "kon"
observed_measurement = 635000

[[record]]
binder = "h10F6.V3 (antibody, IgG1, V domains shown, IgG1 variant of h10F6) VH: EVQLQESGPGLVKPSETLSLTCTVSGFSLTNYRVSWVRQPPGKGLEWLGVMYAGGGTNYNSVFKSRLTISKDNSKNQVSLKLSSVTAADTAVYYCARERPLTGVMDNWGQGTLVTVSS VL: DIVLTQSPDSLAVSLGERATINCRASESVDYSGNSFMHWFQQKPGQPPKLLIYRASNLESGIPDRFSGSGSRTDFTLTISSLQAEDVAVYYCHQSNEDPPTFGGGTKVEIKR"
reported_metric = "kon"
observed_measurement = "2.04e+06"


We now examine a further binder.
kon measured on h10F6.V1 (antibody, IgG1, V domains shown, differs by 3 residues in the heavy chain CDRs and 1 in the light chain CDRs; also called surrogate antibody) VH: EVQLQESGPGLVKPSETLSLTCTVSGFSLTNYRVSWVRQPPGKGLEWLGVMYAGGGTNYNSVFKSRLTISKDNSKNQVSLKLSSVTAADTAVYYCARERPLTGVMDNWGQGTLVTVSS VL: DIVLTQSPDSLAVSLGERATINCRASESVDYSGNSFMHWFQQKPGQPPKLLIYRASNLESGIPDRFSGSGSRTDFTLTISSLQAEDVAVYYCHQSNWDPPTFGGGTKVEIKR = 1.44e+06
